- Test system: 677734-321-R-J1-PDC complex spheroid viability;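 also: spheroids exposed to compounds for one week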
- testDescription: Anticancer human tumor 677734-321-R-J1-PDC patient-derived soft tissue sarcoma cell line growth inhibition [POLQ]; active = viability on the fitted dose curve at most 10% of control; inactive = the rest
- testConditions: second compound 0.1 µM; first compound 1 µM
Outcome codes: active, inactive

{"columns": ["molecule", "categoryLabel"],
 "data": [
  ["C=CCn1c(=O)c2cnc(Nc3ccc(N4CCN(C)CC4)cc3)nc2n1-c1cccc(C(C)(C)O)n1 + COC1C(OC(N)=O)C(O)C(Oc2ccc3c(O)c(NC(=O)c4ccc(O)c(CC=C(C)C)c4)c(=O)oc3c2C)OC1(C)C", "inactive"],
  ["COc1cc(C2c3cc4c(cc3C(OC3OC5COC(C)OC5C(O)C3O)C3COC(=O)C23)OCO4)cc(OC)c1O (stereo not given) + COC1C(OC(N)=O)C(O)C(Oc2ccc3c(O)c(NC(=O)c4ccc(O)c(CC=C(C)C)c4)c(=O)oc3c2C)OC1(C)C", "inactive"],
  ["COc1cccc2c1C(=O)c1c(O)c3c(c(O)c1C2=O)CC(O)(C(=O)CO)CC3OC1CC(N)C(O)C(C)O1 (stereo not given) + Nc1ccc(C#CCN(C(=O)Cc2ncc(C(F)(F)F)cc2C(F)(F)F)c2ccc(F)cc2)nn1", "active"],
  ["Nc1ccn(C2OC(CO)C(O)C2(F)F)c(=O)n1 (stereo not given) + Nc1ccc(C#CCN(C(=O)Cc2ncc(C(F)(F)F)cc2C(F)(F)F)c2ccc(F)cc2)nn1", "active"],
  ["COc1cc(C2c3cc4c(cc3C(OC3OC5COC(C)OC5C(O)C3O)C3COC(=O)C23)OCO4)cc(OC)c1O (stereo not given) + Cc1cccc(N(C)C(=O)C2C(O)CCN2c2nc(C)cc(C(F)(F)F)c2C#N)c1", "inactive"],
  ["O=c1[nH]cc(F)c(=O)[nH]1 + COC1C(OC(N)=O)C(O)C(Oc2ccc3c(O)c(NC(=O)c4ccc(O)c(CC=C(C)C)c4)c(=O)oc3c2C)OC1(C)C", "inactive"],
  ["CC(C)n1c(=O)n(C)c2cnc3cc(F)c(-c4ccc(OCCCN5CCCCC5)nc4)cc3c21 + Cc1cccc(N(C)C(=O)C2C(O)CCN2c2nc(C)cc(C(F)(F)F)c2C#N)c1", "inactive"],
  ["CC(C)n1c(=O)n(C)c2cnc3cc(F)c(-c4ccc(OCCCN5CCCCC5)nc4)cc3c21 + Nc1ccc(C#CCN(C(=O)Cc2ncc(C(F)(F)F)cc2C(F)(F)F)c2ccc(F)cc2)nn1", "inactive"],
  ["O=C(Nc1ccc(O)c(NS(=O)(=O)c2ccc(F)cc2)c1)c1ccc(-c2ccccc2)cc1 + COC1C(OC(N)=O)C(O)C(Oc2ccc3c(O)c(NC(=O)c4ccc(O)c(CC=C(C)C)c4)c(=O)oc3c2C)OC1(C)C", "inactive"],
  ["COc1cccc(OCCCN)c1-c1cc(Nc2cnc(C#N)cn2)n[nH]1 + Cc1cccc(N(C)C(=O)C2C(O)CCN2c2nc(C)cc(C(F)(F)F)c2C#N)c1", "active"],
  ["CCc1c2c(nc3ccc(O)cc13)-c1cc3c(c(=O)n1C2)COC(=O)[C@]3(O)CC + Cc1cccc(N(C)C(=O)C2C(O)CCN2c2nc(C)cc(C(F)(F)F)c2C#N)c1", "active"],
  ["CNCc1ccc(-c2[nH]c3cc(F)cc4c3c2CCNC4=O)cc1 + Nc1ccc(C#CCN(C(=O)Cc2ncc(C(F)(F)F)cc2C(F)(F)F)c2ccc(F)cc2)nn1", "inactive"],
  ["COc1cc2cc(C(=O)CCC(=O)O)sc2cc1OC + COC1C(OC(N)=O)C(O)C(Oc2ccc3c(O)c(NC(=O)c4ccc(O)c(CC=C(C)C)c4)c(=O)oc3c2C)OC1(C)C", "inactive"],
  ["COc1cccc(OCCCN)c1-c1cc(Nc2cnc(C#N)cn2)n[nH]1 + COC1C(OC(N)=O)C(O)C(Oc2ccc3c(O)c(NC(=O)c4ccc(O)c(CC=C(C)C)c4)c(=O)oc3c2C)OC1(C)C", "active"],
  ["C=CC(=O)N1CCN(c2nc(=O)n(-c3c(C)ccnc3C(C)C)c3nc(-c4c(O)cccc4F)c(F)cc23)C(C)C1 (stereo not given) + Cc1cccc(N(C)C(=O)C2C(O)CCN2c2nc(C)cc(C(F)(F)F)c2C#N)c1", "inactive"]
]}
